All figures here come from PubChem BioAssay (NCI).

Observed GI50 values for KM12 colon are listed in what follows.

| Molecule | Measured Target | Result |
| --- | --- | --- |
| COc1cc(CNC(=O)/C=C/C=C/c2ccc3c(c2)OCO3)ccc1OCc1cn(-c2ccc(Cl)c(Cl)c2)nn1 | KM12 colon | 2.41 µM |

For the molecule O=C1NC(=NCc2cccs2)SC1Cc1ccc2ncccc2c1 (stereo not given) , the measured GI50 on KM12 colon was 15.6 µM

Value (GI50, KM12 colon) for record `O=C(Oc1cccnc1)c1ccccc1Nc1ccnc(C(F)(F)F)c1` = 0.169 µM

I looked up `CCCNc1nc(N(C)O)nc(N(C)O)n1` and its GI50 for KM12 colon was 3.09 µM

Test item `Clc1ccc(-c2nc3c(-c4ccc(Cl)cc4)nc(-c4ccccc4)cn3c2-c2ccc(Cl)cc2)cc1` ; KM12 colon; reported GI50 was > 50 µM

====

test system: MCF7 breast; assay: NCI tumour cell line growth inhibition, 48 h
Quantity: TGI

Reference set, count: 4
| Compound | Result |
| --- | --- |
| CCOC(=O)c1ccc(N=C2SC(=S)N(c3ccc(F)cc3)C2=Nc2ccc(C(=O)OCC)cc2)cc1 | 42.2 µM |
| CS(C)(=O)=N/C=C\C(=O)C(Cl)(Cl)Cl | > 100 µM |
| CCCCCCCCCc1cc(O)c(O)cc1CCCCCCCCC | > 10 µM |
| C=CCCCCOC1C=CC(OC(C)=O)C(COC(C)=O)O1 (stereo unspecified) | > 100 µM |

# TGI measured on MCF7 breast for item `CCOc1ccc(Cc2nccc3cc(OCC)c(OCC)cc23)cc1OCC` = 23.8 µM

Known value: MCF7 breast TGI of the compound `N#Cc1ccc(Oc2nccc(-c3c(-c4ccc(F)cc4)ncn3C3CCNCC3)n2)cc1` equals > 25 µM

COc1ccc(-c2cc(-c3ccccc3)n(C3OC(COC(C)=O)C(OC(C)=O)C(OC(C)=O)C3OC(C)=O)c(=S)c2C#N)cc1 (stereo unspecified) on MCF7 breast gives TGI = > 100 µM

Simply: `COc1ccc(/C=C2/C(=O)N(C(=O)c3ccccc3O)N=C2C)cc1OC` , MCF7 breast, TGI = 33.9 µM

The compound `Cc1ccc(/C=C(\C#N)n2nnc3cc(Cl)c(Cl)cc32)cc1` , tested on MCF7 breast, showed TGI of > 100 µM

====

# key: entry, value: TGI
system: SF-539 CNS; experiment: NCI tumour cell line growth inhibition, 48 h

| Compound | Measured Target | TGI |
| --- | --- | --- |
| Nc1[nH]c(=O)nc2sc3c(c12)CCCC3 | SF-539 CNS | > 100 µM |

Measured TGI, `COc1cc(CNC(=O)/C=C/C=C/c2ccc3c(c2)OCO3)ccc1OCc1cn(-c2ccc(Cl)c(Cl)c2)nn1` : 12.3 µM

Entry Cc1cccc2c1Oc1cc(Cl)ccc1C2NC(=O)CCN1CCCCC1 (centres undefined) ; TGI = 31.9 µM

// TGI value for `CCCCCCN(CCCCCC)CCCNc1nccc2ccccc12` : 3.59 µM

Item: O=[N+]([O-])c1cccc(C2SCc3nc4ccccc4n32)c1 (centres undefined) | TGI: > 100 µM

Query `Cc1ccnc(NS(=O)(=O)c2ccc(NC(=O)c3ccc4nc5ccccc5c(Nc5ccc(S(=O)(=O)Nc6nccc(C)n6)cc5)c4c3)cc2)n1` yields TGI of > 100 µM

Field TGI (entry `Cn1cc(-c2csc(-c3c[nH]c4ncccc34)n2)c2cc(Br)cnc21` ) reads > 100 µM

Query `O=[N+]([O-])c1cc2n[nH]nc2c2nonc12` yields TGI of 56 µM

TGI recorded for this compound, COc1c(OC(C)=O)cc2c(OC(C)=O)c1CC(C)CC(OC)C(O)C(C)/C=C(\C)C(OC(N)=O)C(OC)/C=C\C=C(/C)C(=O)N2 (centres undefined) , is > 100 µM

Record summary for `CS(C)(=O)=N/C=C\C(=O)C(Cl)(Cl)Cl` : reported TGI = > 100 µM

Per the records, this compound ( `CN(C)CCNC(=O)c1cccc2nc3ccc4ccccc4c3nc12` ) has TGI equal to 0.271 µM

Short answer for CCCCc1ccc(Nc2nc3c(ncn3C3OC(COC(C)=O)C(OC(C)=O)C3OC(C)=O)c(=O)[nH]2)cc1 (centres undefined) : TGI was 57.9 µM

The reported value for `NC(=O)c1cnc2sc3ccccc3n2c1=O` in terms of TGI is > 100 µM

Measured TGI of CN(C)CC(C(=O)c1ccccc1)c1ccccc1 (centres undefined) : 5.04 µM
